Values compiled from PubChem BioAssay (NCATS).

# System: HACAT
# assay-remarks: qHTS assay to identify novel small-molecules to repurpose for Merkel cell carcinoma treatment (AID 1296009); further: nearly all actives have a fitted effect of over 60% in size
# settings: MCC and control cell lines, CellTiter-Glo viability, 72 h; at 44.8 µM (top of the series) unless noted
Records with an inconclusive call do not appear. Activity calls are given as the source filed them. The call rests on the fitted dose curve; in most records, active means well fitted inhibition curve with a large enough effect; inconclusive means small, poorly fitted or top-dose-only effect; inactive means flat fitted curve, though single readings scatter.
parameter: outcome

Return outcome (reported value) for this compound: CC(C)OC(=O)OCOP(=O)(CO[C@H](C)Cn1cnc2c(N)ncnc21)OCOC(=O)OC(C)C
inactive

Return outcome (reported value) for this compound: O=c1cc(O)c(Cl)c[nH]1
inactive

Return outcome (reported value) for this compound: CCCc1cc(C(N)=S)ccn1
inactive

Return outcome (reported value) for this compound: CC[C@H](NC(C)C)[C@H](O)c1ccc(O)c2[nH]c(=O)ccc12
inactive

====

# target-or-test-system: Voltage-gated inwardly rectifying potassium channel KCNH2 (Homo sapiens)
# assay-remarks: qHTS Assay for Small Molecule Inhibitors of the Human hERG Channel Activity (AID 588834);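 further: lower thallium flux fluorescence means stronger hERG block; nearly all actives have a fitted effect of over 50% in size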
# settings: U2OS BacMam hERG, FluxOR thallium flux fluorescence; series mostly up to 46.1 µM
Inconclusive results are not listed. Activity calls are given as the source filed them. Calls follow the shape of the dose curve; as a rule, active = well fitted inhibition curve with a large enough effect; inconclusive = small, poorly fitted or top-dose-only effect; inactive = flat fitted curve, though single readings scatter.
Outcome field: choose from 1.0 = active, 0.0 = inactive

Answer briefly: the call reported for NC(=O)c1cccnc1 in this assay.
0.0

Answer briefly: the call reported for C[C@@H](NCCCc1cccc(C(F)(F)F)c1)c1cccc2ccccc12 in this assay.
1.0

Answer briefly: the call reported for Cc1onc(-c2ccccc2Cl)c1C(=O)N[C@@H]1C(=O)N2[C@@H]1SC(C)(C)[C@@H]2C(=O)O in this assay.
0.0

Answer briefly: the call reported for Nc1nc(F)nc2c1ncn2[C@@H]1O[C@H](CO)[C@@H](O)[C@@H]1O in this assay.
0.0

Answer briefly: the call reported for CCCCS(=N)(=O)CCC(N)C(=O)O (stereo not drawn) in this assay.
0.0

Answer briefly: the call reported for CCOCC(O)COc1ccc(NC(=O)CC[S+](C)C)cc1 (stereo not drawn) in this assay.
0.0

====

# assay-remarks: Cell Viability - LYMP2-007 (AID 979);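 further: cells exposed to compound for 24 h before reading; nearly all actives have a fitted effect of over 60% in size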
# settings: LYMP2-007 lymphoblastoid cell viability; series mostly up to 92.2 µM
Inconclusive results are not listed. The source made the active and inactive calls. Calls follow the shape of the dose curve; as a rule, active = well fitted cell-killing curve with a large enough effect; inconclusive = small, poorly fitted or top-dose-only effect; inactive = flat fitted curve, though single readings scatter.
Outcome field: choose from 1 (active), -1 (inactive)

Answer briefly: the call reported for C[C@]12C=CC(=O)C=C1CC[C@@H]1[C@@H]2C(=O)C[C@@]2(C)[C@H]1CC[C@]2(O)C(=O)CO in this assay.
-1

Continuing:
Answer briefly: the call reported for O=C(N[C@H](CO)[C@H](O)c1ccc([N+](=O)[O-])cc1)C(Cl)Cl in this assay.
-1

Answer briefly: the call reported for O=C(O)c1cc(=O)[nH]c(=O)[nH]1 in this assay.
-1

Answer briefly: the call reported for Cc1ncc([N+](=O)[O-])n1CCO in this assay.
-1

Answer briefly: the call reported for Cc1nnc(NS(=O)(=O)c2ccc(N)cc2)s1 in this assay.
-1

Answer briefly: the call reported for Cc1cc(NS(=O)(=O)c2ccc(N)cc2)no1 in this assay.
-1

Answer briefly: the call reported for N=C(N)c1ccc(OCCCCCOc2ccc(C(=N)N)cc2)cc1 in this assay.
1

Answer briefly: the call reported for CC1=NN(c2ccccc2)C(=O)C1 in this assay.
-1

====

# assay-remarks: qHTS Screen of the MIPE 4.0 Collection Against Ewings Sarcoma (RDES) (AID 1259252); further: nearly all actives have a fitted effect of over 35% in size
# settings: RD-ES Ewing sarcoma viability, CellTiter-Glo, 48 h; series mostly up to 45.8 µM
Results filed as inconclusive are left out. Active and inactive are the calls of the source. The call rests on the fitted dose curve; in most records, active means well fitted inhibition curve with a large enough effect; inconclusive means small, poorly fitted or top-dose-only effect; inactive means no such curve, though single readings can be large or run the other way.
Outcome field: choose from 1 = active, -1 = inactive

The examples below pair each entry with its known result.
Answer briefly: the call reported for CCOC(=O)[C@H](CCc1ccccc1)N[C@H]1CCc2ccccc2N(CC(=O)O)C1=O in this assay.
1

Answer briefly: the call reported for N[C@@H](C(=O)N[C@@H]1C(=O)N2C(C(=O)O)=C(Cl)CS[C@H]12)c1ccccc1 in this assay.
-1

Answer briefly: the call reported for Cc1nnc(C(=O)NC(C)(C)c2nc(C(=O)NCc3ccc(F)cc3)c(O)c(=O)n2C)o1 in this assay.
-1

Answer briefly: the call reported for COC(c1ccccc1)(c1ccccc1)[C@H](Oc1nc(C)cc(C)n1)C(=O)O in this assay.
-1

Answer briefly: the call reported for NC(=O)c1cccnc1 in this assay.
-1

Answer briefly: the call reported for Cc1nnc(NS(=O)(=O)c2ccc(N)cc2)s1 in this assay.
1

Answer briefly: the call reported for CCCOc1ccc(C(=O)OCCN(CC)CC)cc1N in this assay.
-1

Answer briefly: the call reported for CO[C@@H]1[C@@H](OC(N)=O)[C@@H](O)[C@H](Oc2ccc3c(O)c(NC(=O)c4ccc(O)c(CC=C(C)C)c4)c(=O)oc3c2C)OC1(C)C in this assay.
1

Answer briefly: the call reported for Cc1oc(=O)oc1CN1CCN(c2cc3c(cc2F)c(=O)c(C(=O)O)c2n3C(C)S2)CC1 (stereo not given) in this assay.
-1

Then this compound:
Answer briefly: the call reported for O=C(O)c1cn(C2CC2)c2cc(N3CCNCC3)c(F)cc2c1=O in this assay.
-1

====

# assay-remarks: Quantitative High-Throughput drug screen in 47 multiple myeloma cell lines against the NCATS MIPE library collection: MOLP8_DSMZ cell viability assay (AID 1918977); further: nearly all actives have a fitted effect of over 45% in size; further: potency means the concentration at half of the fitted maximal effect
# settings: MOLP8 myeloma viability, CellTiter-Glo ATP luminescence, 48 h; series mostly up to 45.8 µM
# Description: PI: Beverly A. Mock Ph.D. Laboratory of Cancer Biology and Genetics, Center for Cancer Research, National Cancer Institute, National Institute of Health, Bethesda, Maryland […] 5; Detector; 425V; Luminescence; Viewlux PerkinElmer. […] 1. […] Briefly, the corresponding myeloma cell lines were screened in 1,536-well plates with 500 cells, 5-uL per well for inhibition of cell viability (assessed by measuring ATP levels with CellTiterGlo). […]
Inconclusive results are not listed. Activity calls are given as the source filed them. Calls follow the shape of the dose curve; as a rule, active = well fitted cell-killing curve with a large enough effect; inconclusive = small, poorly fitted or top-dose-only effect, or effect the other way; inactive = no such curve, though single readings can be large or run the other way.
parameter: Potency

Record excerpt, results attached:
Return Potency (reported value) for this compound: CCOCC(O)COc1ccc(NC(=O)CC[S+](C)C)cc1 (stereo unspecified)
inactive

Return Potency (reported value) for this compound: NNC(=O)c1ccncc1
inactive

Return Potency (reported value) for this compound: COc1cccc(N(C)C(=S)Oc2ccc3c(c2)CCCC3)n1
inactive

Return Potency (reported value) for this compound: O=C(O)c1cccnc1
inactive

Return Potency (reported value) for this compound: CCOC(=O)[C@H](CCc1ccccc1)N[C@H]1CS[C@H](c2cccs2)CN(CC(=O)O)C1=O
20.9 µM (active)

# ---- query compound ----
Return Potency (reported value) for this compound: Nc1nc(N)c2nc(CNc3ccc(C(=O)NC(CCC(=O)O)C(=O)O)cc3)cnc2n1 (stereo unspecified)
inactive

====

# assay-remarks: qHTS of pediatric cancer cell lines to identify multiple opportunities for drug repurposing: Confirmatory screen for Saos-2 cells (AID 1347127); further: nearly all actives have a fitted effect of over 60% in size
# settings: Saos-2 osteosarcoma cell viability; series mostly up to 45.9 µM
# Protocol: Drug repurposing or repositioning has been offered as a strategy for drug development in oncology programs. […] [1] Shen, M et al. Quantitative high-throughput phenotypic screening of pediatric cancer cell lines identifies multiple opportunities for drug repurposing. […] Cells were assayed in growth media at a density of 500-1,000 cells/well. […] After a 15 min incubation at room temperature, samples were analyzed for luminescence intensity using a ViewLux High-throughput CCD imager equipped with clear filters.
Results filed as inconclusive are left out. The source made the active and inactive calls. Calls follow the shape of the dose curve; as a rule, active = well fitted cell-killing curve with a large enough effect; inconclusive = small, poorly fitted or top-dose-only effect, or effect the other way; inactive = no such curve, though single readings can be large or run the other way.
Outcome field: choose from active, inactive

The examples below pair each entry with its known result.
Answer briefly: the call reported for CC(C)NCC(O)c1ccc(NS(C)(=O)=O)cc1 (configuration not stated) in this assay.
inactive

Answer briefly: the call reported for CCOC(=O)c1ccc(C#Cc2ccc3c(c2)C(C)(C)CCS3)nc1 in this assay.
inactive

Answer briefly: the call reported for COC(=O)Nc1nc2ccc(Sc3ccccc3)cc2[nH]1 in this assay.
active

Answer briefly: the call reported for CC(C)(C#N)c1cc(Cn2cncn2)cc(C(C)(C)C#N)c1 in this assay.
inactive

Answer briefly: the call reported for COc1nc(N)nc2c1ncn2[C@@H]1O[C@H](CO)[C@@H](O)[C@@H]1O in this assay.
inactive

Continuing:
Answer briefly: the call reported for NC(=O)c1cccnc1 in this assay.
inactive

Answer briefly: the call reported for CCc1c2c(nc3ccc(OC(=O)N4CCC(N5CCCCC5)CC4)cc13)-c1cc3c(c(=O)n1C2)COC(=O)[C@]3(O)CC in this assay.
active

Answer briefly: the call reported for CC(C)C[C@H](NC(=O)[C@H](CCc1ccccc1)NC(=O)CN1CCOCC1)C(=O)N[C@@H](Cc1ccccc1)C(=O)N[C@@H](CC(C)C)C(=O)[C@@]1(C)CO1 in this assay.
active

Answer briefly: the call reported for CCCCOc1ccc(CC(=O)NO)cc1 in this assay.
inactive

Answer briefly: the call reported for COc1cc(NCc2ccc3nc(N)nc(N)c3c2C)cc(OC)c1OC in this assay.
active

Answer briefly: the call reported for CCC(=O)O[C@]1(C(=O)CCl)[C@@H](C)C[C@H]2[C@@H]3CCC4=CC(=O)C=C[C@]4(C)[C@@]3(F)[C@@H](O)C[C@@]21C in this assay.
inactive

Answer briefly: the call reported for S=P(N1CC1)(N1CC1)N1CC1 in this assay.
inactive
